# experiment.notes: Clearance in dog liver microsomes assessed per mg of protein in presence of UDPGA
# Type: ADME, Canis lupus familiaris
# assay.context: read-out: CLH
endpoint.label: microsomal CLint (µL/min/mg)
Your answer should be a plain number; it is taken to be in µL/min/mg.

stdin: Tell me the measured microsomal CLint of "COc1cc(F)ccc1Cn1ccc2c3c(ncc21)C(=O)N(O)CC3" , please.
stdout: 21

###

# experiment.notes: Clearance in rat liver microsomes assessed per mg of protein in presence of UDPGA
# Type: ADME
# assay.context: read-out: CLH
endpoint.label: microsomal CLint (µL/min/mg)
Your answer should be a plain number; it is taken to be in µL/min/mg.

stdin: Tell me the measured microsomal CLint of "COc1cc(F)ccc1Cn1ccc2c3c(ncc21)C(=O)N(O)CC3" , please.
stdout: 43

###

# experiment.notes: Lipophilicity, log D of the compound
# Type: physicochemical
# assay.context: octanol/water
endpoint.label: logD
Give a plain numeric answer without units written out.

stdin: Tell me the measured logD of "COc1cc(F)ccc1Cn1ccc2c3c(ncc21)C(=O)N(O)CC3" , please.
stdout: 2.1

###

# experiment.notes: Clearance in healthy human at 100 ug, iv
# Assay type: ADME, organism-based
# assay.context: in vivo
endpoint.label: clearance (mL/min/kg)
Your answer should be a plain number; it is taken to be in mL/min/kg.

stdin: Tell me the measured clearance of COc1cc(F)ccc1Cn1ccc2c3c(ncc21)C(=O)N(O)CC3 [PF-04776548] , please.
stdout: 18

###

# Test system: Human immunodeficiency virus 1
# experiment.notes: Antiviral activity against HIV1 HT92596 infected in human PBMC after 5 days by human JC53BL cell-based beta-galactosidase reporter gene assay
# Format: functional, organism-based
# assay.context: Human immunodeficiency virus 1, HT92596, JC53BL, 120 h
endpoint.label: EC50 (nM)
Your answer should be a plain number; it is taken to be in nM.

stdin: Tell me the measured EC50 of "COc1cc(F)ccc1Cn1ccc2c3c(ncc21)C(=O)N(O)CC3" , please.
stdout: 0.84

###

# Test system: Canis familiaris
# experiment.notes: Clearance in dog at 0.1 mg/kg, iv
# Type: ADME, organism-based, Canis lupus familiaris
# Set-up: dose 0.1 mg/kg, route intravenous
# assay.context: in vivo
endpoint.label: clearance (mL/min/kg)
Your answer should be a plain number; it is taken to be in mL/min/kg.

stdin: Tell me the measured clearance of "COc1cc(F)ccc1Cn1ccc2c3c(ncc21)C(=O)N(O)CC3" , please.
stdout: 24

###

# experiment.notes: Selectivity ratio of CC50 for HIV1 NL4-3 infected in human MT2 cells to IC50 for human MT2 cells
# Type: ADME, cell-based
# assay.context: read-out: Ratio CC50/IC50
endpoint.label: selectivity ratio
Give a plain numeric answer without units written out.

stdin: Tell me the measured selectivity ratio of "COc1cc(F)ccc1Cn1ccc2c3c(ncc21)C(=O)N(O)CC3" , please.
stdout: 4800

###

# experiment.notes: Inhibition of DNA polymerase alpha (unknown origin)
# Parameters: species or system Homo sapiens
endpoint.label: IC50 (µM)
Your answer should be a plain number; it is taken to be in µM.

stdin: Tell me the measured IC50 of C[C@@]1(CO)[C@H](O)CC[C@@]2(C)[C@H]1CC[C@H]1C[C@@H]3C[C@@]12CC[C@]3(O)CO [APHIDICOLIN] , please.
stdout: 7.17

stdin: Tell me the measured IC50 of "Cc1cn([C@H]2CC[C@@H](COP(=O)(O)OP(=O)(O)OP(=O)(O)O)O2)c(=O)[nH]c1=O" , please.
stdout: 7.17

stdin: Tell me the measured IC50 of Cc1cn([C@H]2C[C@H](N=[N+]=[N-])[C@@H](COP(=O)(O)OP(=O)(O)OP(=O)(O)O)O2)c(=O)[nH]c1=O [ZIDOVUDINE TRIPHOSPHATE] , please.
stdout: 7.17

###

# experiment.notes: Half life in healthy human at 100 ug, iv
# Assay type: ADME, organism-based
# assay.context: in vivo
endpoint.label: half-life

stdin: Tell me the measured half-life of "COc1cc(F)ccc1Cn1ccc2c3c(ncc21)C(=O)N(O)CC3" , please.
stdout: 2.8 h

###

Consider the following molecules; for each one, report its log10(microsomal CLint).
# experiment.notes: Intrinsic clearance in human liver microsomes assessed per mg of protein by LC-MS/MS analysis in presence of UDPGA
# Format: ADME
# assay.context: read-out: CLH
Scale type: logarithmic (base 10). Underlying microsomal CLint unit: µL/min/mg.

stdin: Tell me the measured log10(microsomal CLint) of "CC1(C)CN(O)C(=O)c2ncc3c(ccn3Cc3ccc(F)cc3)c21" , please.
stdout: 2.23

stdin: Tell me the measured log10(microsomal CLint) of "Cc1nc2c(ncc3c2ccn3Cc2ccc(F)cc2)c(=O)n1O" , please.
stdout: 1.90

stdin: Tell me the measured log10(microsomal CLint) of "COc1cc(Cn2ccc3c4c(ncc32)C(=O)N(O)CC4)ccc1F" , please.
stdout: 1.26

stdin: Tell me the measured log10(microsomal CLint) of "COc1cc(F)ccc1Cn1ccc2c3c(ncc21)C(=O)N(O)C(C)(C)C3" , please.
stdout: 1.29

stdin: Tell me the measured log10(microsomal CLint) of "COc1cc(F)ccc1Cn1ccc2c3c(ncc21)C(=O)N(O)CC3" , please.
stdout: 1.45

stdin: Tell me the measured log10(microsomal CLint) of "O=C1c2ncc3c(ccn3Cc3ccc(F)cc3)c2CCN1O" , please.
stdout: 1.38

stdin: Tell me the measured log10(microsomal CLint) of "COc1cc(F)ccc1Cn1ccc2c3c(ncc21)C(=O)N(O)C3(C)C" , please.
stdout: 0.68

stdin: Tell me the measured log10(microsomal CLint) of "COCCNC(=O)c1c(O)c2ncc3c(ccn3Cc3ccc(F)cc3)c2[nH]c1=O" , please.
stdout: 0.54

stdin: Tell me the measured log10(microsomal CLint) of "CCOc1cc(F)ccc1Cn1ccc2c3c(ncc21)C(=O)N(O)CC3" , please.
stdout: 0.70

stdin: Tell me the measured log10(microsomal CLint) of "O=C1c2ncc3c(ccn3Cc3ccc(F)cc3OC(F)F)c2CCN1O" , please.
stdout: 0.76

###

# System: Human immunodeficiency virus 1
# experiment.notes: Antiviral activity against HIV1 HT92599 infected in human PBMC after 5 days by human JC53BL cell-based beta-galactosidase reporter gene assay
# Assay type: functional, organism-based
# assay.context: Human immunodeficiency virus 1, HT92599, JC53BL, 120 h
endpoint.label: pEC50
Formally, pEC50 is defined as -log10 of the concentration c, with c in mol/L.

stdin: Tell me the measured pEC50 of "COc1cc(F)ccc1Cn1ccc2c3c(ncc21)C(=O)N(O)CC3" , please.
stdout: 9.43

###

# experiment.notes: Clearance in rat hepatocytes assessed per million of cells
# Format: ADME, cell-based, Hepatocyte
# assay.context: read-out: CLH
endpoint.label: hepatocyte CLint (µL/min/1e6 cells)
Your answer should be a plain number; it is taken to be in µL/min/1e6 cells.

stdin: Tell me the measured hepatocyte CLint of "COc1cc(F)ccc1Cn1ccc2c3c(ncc21)C(=O)N(O)CC3" , please.
stdout: 33

###

# experiment.notes: Plasma protein binding in dog
# Type: ADME, cell-free, Canis lupus familiaris
# assay.context: read-out: PPB (converted)
endpoint.label: fraction unbound
Give a plain numeric answer without units written out.

stdin: Tell me the measured fraction unbound of COc1cc(F)ccc1Cn1ccc2c3c(ncc21)C(=O)N(O)CC3 [PF-04776548] , please.
stdout: 0.16

###

# experiment.notes: Inhibition of DNA polymerase beta (unknown origin)
# Design: species or system Homo sapiens
endpoint.label: IC50 (µM)
Your answer should be a plain number; it is taken to be in µM.

stdin: Tell me the measured IC50 of Cc1cn([C@H]2C[C@H](N=[N+]=[N-])[C@@H](COP(=O)(O)OP(=O)(O)OP(=O)(O)O)O2)c(=O)[nH]c1=O [ZIDOVUDINE TRIPHOSPHATE] , please.
stdout: 1.96

stdin: Tell me the measured IC50 of "Cc1cn([C@H]2CC[C@@H](COP(=O)(O)OP(=O)(O)OP(=O)(O)O)O2)c(=O)[nH]c1=O" , please.
stdout: 1.96

stdin: Tell me the measured IC50 of C[C@@]1(CO)[C@H](O)CC[C@@]2(C)[C@H]1CC[C@H]1C[C@@H]3C[C@@]12CC[C@]3(O)CO [APHIDICOLIN] , please.
stdout: 1.96

###

# experiment.notes: Intrinsic clearance in human hepatocytes assessed assessed per million of cells by LC-MS/MS analysis
# Type: ADME, cell-based, Hepatocyte
# assay.context: read-out: CLH
endpoint.label: hepatocyte CLint (µL/min/1e6 cells)
Your answer should be a plain number; it is taken to be in µL/min/1e6 cells.

stdin: Tell me the measured hepatocyte CLint of "CCOc1cc(F)ccc1Cn1ccc2c3c(ncc21)C(=O)N(O)CC3" , please.
stdout: 23.2

stdin: Tell me the measured hepatocyte CLint of "O=C(NCCO)c1c(O)c2ncc3c(ccn3Cc3ccc(F)cc3)c2[nH]c1=O" , please.
stdout: 2.9

stdin: Tell me the measured hepatocyte CLint of "CC1(C)CN(O)C(=O)c2ncc3c(ccn3Cc3ccc(F)cc3)c21" , please.
stdout: 64.7

stdin: Tell me the measured hepatocyte CLint of "COc1cc(Cn2ccc3c4c(ncc32)C(=O)N(O)CC4)ccc1F" , please.
stdout: 34.3

stdin: Tell me the measured hepatocyte CLint of "COc1cc(F)ccc1Cn1ccc2c3c(ncc21)C(=O)N(O)C(C)(C)C3" , please.
stdout: 37.7

stdin: Tell me the measured hepatocyte CLint of "O=C1c2ncc3c(ccn3Cc3ccc(F)cc3OC(F)F)c2CCN1O" , please.
stdout: 17

stdin: Tell me the measured hepatocyte CLint of "O=C1c2ncc3c(ccn3Cc3ccc(F)cc3)c2CCN1O" , please.
stdout: 29.6

stdin: Tell me the measured hepatocyte CLint of "COc1cc(F)ccc1Cn1ccc2c3c(ncc21)C(=O)N(O)C3(C)C" , please.
stdout: 28.8

stdin: Tell me the measured hepatocyte CLint of "Cc1nc2c(ncc3c2ccn3Cc2ccc(F)cc2)c(=O)n1O" , please.
stdout: 14.1

stdin: Tell me the measured hepatocyte CLint of "COc1cc(F)ccc1Cn1ccc2c3c(ncc21)C(=O)N(O)CC3" , please.
stdout: 32.7

stdin: Tell me the measured hepatocyte CLint of "COCCNC(=O)c1c(O)c2ncc3c(ccn3Cc3ccc(F)cc3)c2[nH]c1=O" , please.
stdout: 5.9
